target: human TAS1R2-WT/TAS1R3-G367C (Homo sapiens, UniProt Q7RTX0+Q8TE23, G367C); construct: expressed in transfected cells; host or cells: HEK293T stably expressing Gα16gust44; assay: Calcium mobilisation assay, TAS1R2-WT with TAS1R3 variant G367C; type: cell-based; details: maximal signal amplitude
Each item that follows carries a reported Max ΔF/F0.
# respond with the number and nothing more

C[C@H](CC[C@@H](O[C@@H]1O[C@H](CO[C@@H]2O[C@H](CO)[C@@H](O)[C@H](O)[C@H]2O)[C@@H](O)[C@H](O)[C@H]1O[C@@H]1O[C@H](CO)[C@@H](O)[C@H](O)[C@H]1O)C(C)(C)O)[C@H]1CC[C@@]2(C)[C@@H]3CC=C4[C@@H](CC[C@H](O[C@@H]5O[C@H](CO[C@@H]6O[C@H](CO)[C@@H](O)[C@H](O)[C@H]6O)[C@@H](O)[C@H](O)[C@H]5O)C4(C)C)[C@]3(C)[C@H](O)C[C@]12C [Mogroside V, mogroside V]    0.60
COc1ccc(CCC(=O)c2c(O)cc(O[C@@H]3O[C@H](CO)[C@@H](O)[C@H](O)[C@H]3O[C@@H]3O[C@@H](C)[C@H](O)[C@@H](O)[C@H]3O)cc2O)cc1O [NHDC, neohesperidin dihydrochalcone]    0.75
OC[C@H]1O[C@H](O[C@]2(CCl)O[C@H](CCl)[C@@H](O)[C@@H]2O)[C@H](O)[C@@H](O)[C@H]1Cl    0.32

Now look at this entry.
Quick check: Max ΔF/F0 of "CC1=CC(=O)NS(=O)(=O)O1" ?
0.06

* * *

Molecular target: human TAS1R2-WT/TAS1R3-S446N (Homo sapiens, UniProt Q7RTX0+Q8TE23, S446N)
Construct: expressed in transfected cells; host or cells: HEK293T stably expressing Gα16gust44
Sequence (Q8TE23 20-839): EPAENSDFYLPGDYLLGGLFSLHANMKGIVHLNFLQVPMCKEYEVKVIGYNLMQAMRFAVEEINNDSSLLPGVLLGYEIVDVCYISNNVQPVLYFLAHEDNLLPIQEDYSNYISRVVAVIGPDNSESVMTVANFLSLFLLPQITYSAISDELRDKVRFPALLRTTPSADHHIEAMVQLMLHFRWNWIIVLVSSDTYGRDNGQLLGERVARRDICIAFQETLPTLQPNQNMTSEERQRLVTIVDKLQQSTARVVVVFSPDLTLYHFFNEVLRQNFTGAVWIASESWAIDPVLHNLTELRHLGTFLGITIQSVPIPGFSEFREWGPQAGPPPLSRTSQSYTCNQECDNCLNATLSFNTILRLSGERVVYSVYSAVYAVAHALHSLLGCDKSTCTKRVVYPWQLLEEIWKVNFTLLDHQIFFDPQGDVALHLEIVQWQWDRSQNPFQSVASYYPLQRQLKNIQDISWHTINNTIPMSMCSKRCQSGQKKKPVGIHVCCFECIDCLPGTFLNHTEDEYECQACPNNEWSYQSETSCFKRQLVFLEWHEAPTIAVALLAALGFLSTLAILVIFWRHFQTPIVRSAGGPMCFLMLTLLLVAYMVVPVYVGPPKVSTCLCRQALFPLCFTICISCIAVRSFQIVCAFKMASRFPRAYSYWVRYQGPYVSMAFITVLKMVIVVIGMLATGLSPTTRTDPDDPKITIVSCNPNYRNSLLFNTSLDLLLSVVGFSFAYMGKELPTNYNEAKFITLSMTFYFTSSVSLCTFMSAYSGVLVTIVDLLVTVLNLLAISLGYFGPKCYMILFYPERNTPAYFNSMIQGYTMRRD
Sequence (Q7RTX0 21-852 S446N): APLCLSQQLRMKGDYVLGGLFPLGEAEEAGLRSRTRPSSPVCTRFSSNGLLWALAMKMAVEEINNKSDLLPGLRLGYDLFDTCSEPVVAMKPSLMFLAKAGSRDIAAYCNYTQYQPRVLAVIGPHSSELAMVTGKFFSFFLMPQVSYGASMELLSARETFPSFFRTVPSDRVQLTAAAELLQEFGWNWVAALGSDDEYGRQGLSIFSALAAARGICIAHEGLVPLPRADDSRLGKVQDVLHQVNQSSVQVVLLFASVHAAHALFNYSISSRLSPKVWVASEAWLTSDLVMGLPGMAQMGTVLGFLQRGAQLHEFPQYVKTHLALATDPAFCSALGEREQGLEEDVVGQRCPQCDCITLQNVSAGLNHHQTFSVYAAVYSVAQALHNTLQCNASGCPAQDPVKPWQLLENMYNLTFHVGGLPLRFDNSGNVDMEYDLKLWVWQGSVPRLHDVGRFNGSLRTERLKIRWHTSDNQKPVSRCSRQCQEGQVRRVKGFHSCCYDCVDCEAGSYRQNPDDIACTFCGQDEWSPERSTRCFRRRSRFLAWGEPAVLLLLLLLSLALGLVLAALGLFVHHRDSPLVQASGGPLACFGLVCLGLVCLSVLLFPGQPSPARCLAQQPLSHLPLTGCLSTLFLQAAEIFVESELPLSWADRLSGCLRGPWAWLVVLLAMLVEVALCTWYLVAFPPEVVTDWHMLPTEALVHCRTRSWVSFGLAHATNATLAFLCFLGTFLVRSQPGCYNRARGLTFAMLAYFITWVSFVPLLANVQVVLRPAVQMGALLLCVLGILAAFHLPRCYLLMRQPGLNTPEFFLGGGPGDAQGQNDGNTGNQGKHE
Experiment: Calcium mobilisation assay, TAS1R2-WT with TAS1R3 variant S446N
Assay type: cell-based
Excerpt: The coding sequences for TAS1R2 and TAS1R3 were commercially synthesised, and the human codon was optimised for expression in human cells. […] The HEK293T cells were kindly provided by Jay P. Slack (Givaudan Flavors Corporation; Cincinnati, OH, USA). […] The Ca^2+ changes were expressed as fractional changes in fluorescent light intensity: ΔF/F = (F − F0)/F0, where F was the fluorescent light intensity at each point, and F0 was the value of emitted fluorescent light prior to stimulus application. […]
Each entry below carries its recorded R1 = Variant EC50/WT EC50.
Just the number, please, no unit attached.

Consider the worked cases shown below.
C=C(C)[C@@H]1CC=C(/C=N/O)CC1 [Perillartine, perillartine]    1.1
COC(=O)[C@H](Cc1ccccc1)NC(=O)[C@H](CC(=O)O)NCCC(C)(C)C [Neotame]    1.0
OC[C@H]1O[C@H](O[C@]2(CCl)O[C@H](CCl)[C@@H](O)[C@@H]2O)[C@H](O)[C@@H](O)[C@H]1Cl [Sucralose]    1.4
C=C1C[C@@]23CC[C@H]4[C@@](C)(CCC[C@@]4(C)C(=O)O[C@@H]4O[C@H](CO)[C@@H](O)[C@H](O[C@@H]5O[C@H](CO)[C@@H](O)[C@H](O)[C@H]5O)[C@H]4O[C@@H]4O[C@H](CO)[C@@H](O)[C@H](O)[C@H]4O)[C@@H]2CC[C@]1(O[C@@H]1O[C@H](CO)[C@@H](O)[C@H](O[C@@H]2O[C@H](CO)[C@@H](O)[C@H](O)[C@H]2O)[C@H]1O[C@@H]1O[C@H](CO)[C@@H](O)[C@H](O)[C@H]1O)C3 [Rebaudioside M, rebaudioside M]    0.9
COc1ccc(CCC(=O)c2c(O)cc(O[C@@H]3O[C@H](CO)[C@@H](O)[C@H](O)[C@H]3O[C@@H]3O[C@@H](C)[C@H](O)[C@@H](O)[C@H]3O)cc2O)cc1O [NHDC, neohesperidin dihydrochalcone]    1.0
C[C@H](CC[C@@H](O[C@@H]1O[C@H](CO[C@@H]2O[C@H](CO)[C@@H](O)[C@H](O)[C@H]2O)[C@@H](O)[C@H](O)[C@H]1O[C@@H]1O[C@H](CO)[C@@H](O)[C@H](O)[C@H]1O)C(C)(C)O)[C@H]1CC[C@@]2(C)[C@@H]3CC=C4[C@@H](CC[C@H](O[C@@H]5O[C@H](CO[C@@H]6O[C@H](CO)[C@@H](O)[C@H](O)[C@H]6O)[C@@H](O)[C@H](O)[C@H]5O)C4(C)C)[C@]3(C)[C@H](O)C[C@]12C [Mogroside V, mogroside V]    1.5

Read the next record carefully.
I have this compound here, CC1=CC(=O)NS(=O)(=O)O1 [Acesulfame K, acesulfame K] , and I need its recorded R1 = Variant EC50/WT EC50.
0.8
